- Experimental System: Metabotropic glutamate receptor 2 (Homo sapiens, UniProt Q14416)
- Assay Procedure: Agonist activity at human mGlu 2 expressed in CHO cells by PAM assay relative to glutamate
- Type: functional, cell-based
- Sequence (Q14416 19-872 limits assumed): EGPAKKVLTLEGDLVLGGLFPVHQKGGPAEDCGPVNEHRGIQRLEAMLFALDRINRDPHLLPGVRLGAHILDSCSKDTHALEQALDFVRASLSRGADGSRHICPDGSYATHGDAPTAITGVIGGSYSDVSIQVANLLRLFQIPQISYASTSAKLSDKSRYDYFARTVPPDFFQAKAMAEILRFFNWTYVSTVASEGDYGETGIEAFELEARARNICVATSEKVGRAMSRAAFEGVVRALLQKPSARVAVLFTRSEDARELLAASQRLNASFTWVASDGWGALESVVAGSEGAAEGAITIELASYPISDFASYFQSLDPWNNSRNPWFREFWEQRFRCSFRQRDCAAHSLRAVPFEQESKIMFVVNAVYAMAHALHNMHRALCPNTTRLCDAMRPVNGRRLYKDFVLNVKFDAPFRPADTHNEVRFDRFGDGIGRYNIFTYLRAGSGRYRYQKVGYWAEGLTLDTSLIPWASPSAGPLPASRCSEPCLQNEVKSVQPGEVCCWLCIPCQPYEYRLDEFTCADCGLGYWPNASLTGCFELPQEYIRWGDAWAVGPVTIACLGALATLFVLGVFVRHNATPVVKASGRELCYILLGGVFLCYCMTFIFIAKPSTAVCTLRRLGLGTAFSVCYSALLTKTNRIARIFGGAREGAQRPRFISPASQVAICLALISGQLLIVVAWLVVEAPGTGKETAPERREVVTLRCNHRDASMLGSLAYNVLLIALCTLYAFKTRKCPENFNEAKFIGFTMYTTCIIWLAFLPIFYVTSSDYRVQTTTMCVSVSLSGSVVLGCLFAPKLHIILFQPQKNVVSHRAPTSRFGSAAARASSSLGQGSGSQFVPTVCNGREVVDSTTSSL
Readings of Emax for the listed molecules
The response must be a number in % with no trailing unit.

Request: For the molecule N#Cc1c(-c2ccc3c(ccn3[C@H]3CC[C@H](O)CC3)c2)ccn2c(CC(F)(F)F)cnc12 , report Emax.
Result: 237

Request: For the molecule N#Cc1c(-c2ccc(NC3CCOCC3)c(Cl)c2)ccn2c(CC(F)(F)F)cnc12 , report Emax.
Result: 307

Request: For the molecule Cn1ccc2cc(-c3ccn4c(CC(F)(F)F)cnc4c3C#N)ccc21 , report Emax.
Result: 154

Request: For the molecule N#Cc1c(-c2cc(Cl)c3[nH]ccc3c2)ccn2c(CC(F)(F)F)cnc12 , report Emax.
Result: 277

====

- Assay Procedure: Oral bioavailability in Sprague-Dawley rat at 10 mg/kg
- Format: ADME, organism-based
- Study Conditions: in vivo
Readings of bioavailability for the listed molecules
The response must be a number in % with no trailing unit.

// known answers, use as guide
* N#Cc1c(-c2ccc(Oc3ccccc3)cc2)ccn2c(CC(F)(F)F)cnc12 | 27
* N#Cc1c(-c2ccc3c(ccn3C3CCOCC3)c2)ccn2c(CC(F)(F)F)cnc12 | 15
* O[C@H]1CC[C@H](n2ccc3cc(-c4ccn5c(CC(F)(F)F)cnc5c4Cl)ccc32)CC1 | 100

// moving on: another record for bioavailability
Request: For the molecule N#Cc1c(-c2ccc3c(ccn3[C@H]3CC[C@H](O)CC3)c2)ccn2c(CC(F)(F)F)cnc12 , report bioavailability.
Result: 50

====

- Assay Procedure: Cmax in Sprague-Dawley rat at 10 mg/kg, po and 1.25 mg/kg, iv
- Assay type: ADME, organism-based
- Study Conditions: in vivo
Result Type: Cmax
Answer with the number, then the unit.

Request: For the molecule N#Cc1c(-c2ccc(Oc3ccccc3)cc2)ccn2c(CC(F)(F)F)cnc12 , report Cmax.
Result: 274 ng/mL

====

Readings of Kp at 2 h for the listed molecules
- Assay Procedure: Ratio of drug level in brain to plasma of SPF Swiss mouse at 10 mg/kg, sc after 2 hrs
- Type: ADME, organism-based
- Parameters: dose 10 mg/kg, route subcutaneous
- Study Conditions: read-out: BPR
// response body must contain only the number

// known answers, use as guide
- N#Cc1c(-c2ccc3c(ccn3[C@H]3CC[C@H](O)CC3)c2)ccn2c(CC(F)(F)F)cnc12: 0.1
- N#Cc1c(-c2ccc(Oc3ccccc3)cc2)ccn2c(CC(F)(F)F)cnc12: 1.7

Request: For the molecule N#Cc1c(-c2ccc3c(ccn3C3CCOCC3)c2)ccn2c(CC(F)(F)F)cnc12 , report Kp at 2 h.
Result: 0.5

====

- Assay Procedure: Metabolic stability of human liver microsomes assessed as compound metabolized at 5 uM after 15 mins
- Format: ADME, Microsome
- Study Conditions: read-out: Drug metabolism
Result Type: metabolised at 0.25 h, 5 µM

// known answers, use as guide
• N#Cc1c(-c2cc(Cl)c3[nH]ccc3c2)ccn2c(CC(F)(F)F)cnc12 = 35%
• N#Cc1c(-c2ccc(NC3CCOCC3)c(Cl)c2)ccn2c(CC(F)(F)F)cnc12 = 21%
• FC(F)(F)Cc1cnc2c(Cl)c(-c3cc(Cl)c4[nH]ccc4c3)ccn12 = 10%
• FC(F)(F)Cc1cnc2c(Cl)c(-c3cc(Cl)c4c(ccn4CC4CC4)c3)ccn12 = 1%
• Cn1ccc2cc(-c3ccn4c(CC(F)(F)F)cnc4c3C#N)cc(Cl)c21 = 51%

Request: For the compound Cn1ccc2cc(-c3ccn4c(CC(F)(F)F)cnc4c3C#N)ccc21 , report metabolised at 0.25 h, 5 µM.
Result: 28%

====

- Assay Procedure: Ratio of drug level in brain to plasma of Sprague-Dawley rat at 10 mg/kg, po after 1 hr
- Format: ADME, organism-based
- Set-up: dose 10 mg/kg, route oral
- Study Conditions: read-out: BPR
Result Type: Kp at 1 h
// response body must contain only the number

Request: For the molecule FC(F)(F)Cc1cnc2c(Cl)c(-c3cc(Cl)c4[nH]ccc4c3)ccn12 , report Kp at 1 h.
Result: 1.3

====

- Assay Procedure: Ratio of drug level in brain to plasma of Sprague-Dawley rat at 10 mg/kg, po after 2 hrs
- Type: ADME, organism-based
- Design: dose 10 mg/kg, route oral
- Study Conditions: read-out: BPR
Result Type: Kp at 2 h

Request: For the molecule FC(F)(F)Cc1cnc2c(Cl)c(-c3cc(Cl)c4[nH]ccc4c3)ccn12 , report Kp at 2 h.
Result: 1.2

====

Readings of Kp at 2 h for the listed compounds
- Assay Procedure: Ratio of drug level in brain to plasma of Sprague-Dawley rat at 10 mg/kg, sc after 2 hrs
- Type: ADME, organism-based
- Parameters: dose 10 mg/kg, route subcutaneous
- Study Conditions: read-out: BPR
// response body must contain only the number

* O[C@H]1CC[C@H](Nc2ccc(-c3ccn4c(CC(F)(F)F)cnc4c3Cl)cc2Cl)CC1 | 1

// moving on: another record for Kp at 2 h
Request: For the compound O[C@H]1CC[C@H](n2ccc3cc(-c4ccn5c(CC(F)(F)F)cnc5c4Cl)ccc32)CC1 , report Kp at 2 h.
Result: 0.3

====

- Assay Procedure: Drug uptake in Sprague-Dawley rat brain at 10 mg/kg, po after 1 hr
- Type: ADME, organism-based
- Parameters: dose 10 mg/kg, route oral
- Study Conditions: read-out: Drug uptake
Result Type: concentration at 1 h (ng/g)
The response must be a number in ng/g with no trailing unit.

Request: For the compound FC(F)(F)Cc1cnc2c(Cl)c(-c3cc(Cl)c4[nH]ccc4c3)ccn12 , report concentration at 1 h.
Result: 538

====

- Assay Procedure: Drug uptake in Sprague-Dawley rat brain at 10 mg/kg, po after 2 hrs
- Assay type: ADME, organism-based
- Parameters: dose 10 mg/kg, route oral
- Study Conditions: read-out: Drug uptake
Result Type: concentration at 2 h (ng/g)
The response must be a number in ng/g with no trailing unit.

Request: For the compound FC(F)(F)Cc1cnc2c(Cl)c(-c3cc(Cl)c4[nH]ccc4c3)ccn12 , report concentration at 2 h.
Result: 441

====

Readings of concentration at 1 h for the listed compounds
- Assay Procedure: Plasma concentration in SPF Swiss mouse at 10 mg/kg, sc after 1 hr
- Type: ADME, organism-based
- Design: dose 10 mg/kg, route subcutaneous
The response must be a number in ng/mL with no trailing unit.

- N#Cc1c(-c2ccc3c(ccn3[C@H]3CC[C@H](O)CC3)c2)ccn2c(CC(F)(F)F)cnc12: 4170

Request: For the compound N#Cc1c(-c2ccc3c(ccn3C3CCOCC3)c2)ccn2c(CC(F)(F)F)cnc12 , report concentration at 1 h.
Result: 932

Request: For the compound N#Cc1c(-c2ccc(Oc3ccccc3)cc2)ccn2c(CC(F)(F)F)cnc12 , report concentration at 1 h.
Result: 1040

====

- Experimental System: Metabotropic glutamate receptor 2 (Homo sapiens)
- Assay Procedure: Agonist activity at human mGlu 2 expressed in CHO cells assessed as [35S]GTPgammaS binding by liquid scintillation analysis
- Sequence (Q14416 whole entry): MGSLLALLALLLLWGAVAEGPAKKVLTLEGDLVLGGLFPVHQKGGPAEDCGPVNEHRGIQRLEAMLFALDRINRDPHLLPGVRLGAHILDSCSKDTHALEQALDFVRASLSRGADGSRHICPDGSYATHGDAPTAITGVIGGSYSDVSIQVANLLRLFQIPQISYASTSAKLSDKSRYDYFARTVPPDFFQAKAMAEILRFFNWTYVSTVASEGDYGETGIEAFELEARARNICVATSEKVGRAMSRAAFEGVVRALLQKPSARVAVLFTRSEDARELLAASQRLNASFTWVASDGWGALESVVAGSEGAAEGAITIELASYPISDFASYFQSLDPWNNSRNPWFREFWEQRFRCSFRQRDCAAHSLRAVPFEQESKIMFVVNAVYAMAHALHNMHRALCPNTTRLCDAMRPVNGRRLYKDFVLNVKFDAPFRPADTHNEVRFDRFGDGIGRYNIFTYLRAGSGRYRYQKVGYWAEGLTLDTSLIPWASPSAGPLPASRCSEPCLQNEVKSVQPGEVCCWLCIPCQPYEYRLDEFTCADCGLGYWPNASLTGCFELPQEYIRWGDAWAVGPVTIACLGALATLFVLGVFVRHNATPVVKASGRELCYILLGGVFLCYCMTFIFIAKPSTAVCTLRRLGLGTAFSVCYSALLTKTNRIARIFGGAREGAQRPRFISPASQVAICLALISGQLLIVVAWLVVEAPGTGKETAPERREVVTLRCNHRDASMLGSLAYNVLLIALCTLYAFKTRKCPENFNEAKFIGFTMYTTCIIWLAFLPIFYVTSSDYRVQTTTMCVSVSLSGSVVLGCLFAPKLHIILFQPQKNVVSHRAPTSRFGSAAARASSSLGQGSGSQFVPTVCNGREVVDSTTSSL
Result Type: pEC50
Scale: pEC50 equals -log10([C]), with [C] in mol/L.

// known answers, use as guide
* O[C@H]1CC[C@H](Nc2ccc(-c3ccn4c(CC(F)(F)F)cnc4c3Cl)cc2Cl)CC1 | 6.82
* N#Cc1c(-c2ccc3c(ccn3CC3CC3)c2)ccn2c(CC(F)(F)F)cnc12 | 6.72
* O[C@H]1CC[C@H](n2ccc3cc(-c4ccn5c(CC(F)(F)F)cnc5c4Cl)ccc32)CC1 | 6.80
* N#Cc1c(-c2ccc(OC3CCOCC3)c(Cl)c2)ccn2c(CC(F)(F)F)cnc12 | 6.21

// moving on: another record for pEC50
Request: For the compound N#Cc1c(-c2ccc3c(c2)OCCN3)ccn2c(CC(F)(F)F)cnc12 , report pEC50.
Result: 5.78

====

- Assay Procedure: Drug uptake in Sprague-Dawley rat brain at 10 mg/kg, sc after 1 hr
- Type: ADME, organism-based
- Parameters: dose 10 mg/kg, route subcutaneous
- Study Conditions: read-out: Drug uptake
Result Type: concentration at 1 h (ng/g)
The response must be a number in ng/g with no trailing unit.

- O[C@H]1CC[C@H](n2ccc3cc(-c4ccn5c(CC(F)(F)F)cnc5c4Cl)ccc32)CC1: 932

// moving on: another record for concentration at 1 h
Request: For the molecule O[C@H]1CC[C@H](Nc2ccc(-c3ccn4c(CC(F)(F)F)cnc4c3Cl)cc2Cl)CC1 , report concentration at 1 h.
Result: 1000

====

- Assay Procedure: Plasma concentration in Sprague-Dawley rat at 10 mg/kg, po after 2 hrs
- Type: ADME, organism-based
- Design: dose 10 mg/kg, route oral
Result Type: concentration at 2 h (ng/mL)
The response must be a number in ng/mL with no trailing unit.

Request: For the compound FC(F)(F)Cc1cnc2c(Cl)c(-c3cc(Cl)c4[nH]ccc4c3)ccn12 , report concentration at 2 h.
Result: 364
